# subjectOfTest: TbINO1 (Trypanosoma brucei brucei)
# Construct: Hexa-His (N); made in house; host or cells: E. coli BL21 Rosetta (DE3)
# method: biochemical
# Format: biochemical
# conditionContext: Table 3; metabolic intermediates; pre-incubated; glucose-6-phosphate as substrate; read-out: IC50 INO1 activity
# Description: An alternative reaction mixture consisted of 2 mM Tris-Ac (pH 9), 2 mM glucose-6-phosphate, 1 mM NAD^+, 1 mM DTT, 2 mM NH4Ac and 5 μg protein in a final volume of 20 μL. The reaction was incubated at 37° C. for 1 hr and terminated by heating at 100° C. for 10 min and the addition of 80 μL of 10 mM NaOH. […] After quenching the reaction mix was analysed by high performance anion-exchange chromatography using a Dionex HPLC system with a CarboPacPA-1 column and PA-1 guard column (Dionex). […]
pIC50: −log10 of the molar value.
So I've got a bunch of compounds here, and I need their pIC50 values.

Field request: pIC50 | item: C=C(OP(=O)(O)O)C(=O)O
< 2.00

Fill in: pIC50 of CCCC(CCC)C(=O)O is ___
< 2.00

Fill blank: measured pIC50 of the compound O=C(CO)CO is ____.
< 2.00

###

# subjectOfTest: TbINO1 (Trypanosoma brucei brucei, UniProt Q5QQ46)
# Construct: Hexa-His (N); made in house; host or cells: E. coli BL21 Rosetta (DE3)
# Sequence (Q5QQ46 1-528): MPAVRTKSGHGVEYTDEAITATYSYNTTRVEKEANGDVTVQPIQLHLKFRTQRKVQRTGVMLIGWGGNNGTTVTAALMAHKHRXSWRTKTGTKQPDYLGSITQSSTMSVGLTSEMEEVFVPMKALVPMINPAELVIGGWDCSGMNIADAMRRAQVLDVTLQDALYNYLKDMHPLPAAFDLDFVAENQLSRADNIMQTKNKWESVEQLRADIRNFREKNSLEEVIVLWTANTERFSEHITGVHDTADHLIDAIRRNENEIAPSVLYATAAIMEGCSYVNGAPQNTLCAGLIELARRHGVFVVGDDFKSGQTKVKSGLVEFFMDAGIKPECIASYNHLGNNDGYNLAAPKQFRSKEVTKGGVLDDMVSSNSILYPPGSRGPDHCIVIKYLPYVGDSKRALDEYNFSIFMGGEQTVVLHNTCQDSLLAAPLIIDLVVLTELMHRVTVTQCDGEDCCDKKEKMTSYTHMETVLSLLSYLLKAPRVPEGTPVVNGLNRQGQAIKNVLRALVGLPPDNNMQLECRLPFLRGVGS
# method: biochemical
# Type: biochemical
# conditionContext: Table 3; metabolic intermediates; pre-incubated; fructose-6-phosphate as substrate; read-out: IC50 PGI activity
pIC50: −log10 of the molar value.
measuredQuantity: pIC50

Any idea what pIC50 was measured for C=C(OP(=O)(O)O)C(=O)O ?
< 2.00

Any idea what its pIC50 is? The molecule is O=C(CO)CO
< 2.00

// lookup pIC50 for CCCC(CCC)C(=O)O
< 2.00
